Taken from patent EP4667483A1.

Target: T1, human transferrin receptor (hTfR) (human, UniProt P02786 89-760)
T1 construct: Recombinant hTfR; at pH 7.4 captured on the chip by an anti-His tag antibody, at pH 6.0 immobilized on an NTA chip, so it carries a His tag; also called human TfR; TfR1
T1 sequence (P02786 89-760 limits assumed): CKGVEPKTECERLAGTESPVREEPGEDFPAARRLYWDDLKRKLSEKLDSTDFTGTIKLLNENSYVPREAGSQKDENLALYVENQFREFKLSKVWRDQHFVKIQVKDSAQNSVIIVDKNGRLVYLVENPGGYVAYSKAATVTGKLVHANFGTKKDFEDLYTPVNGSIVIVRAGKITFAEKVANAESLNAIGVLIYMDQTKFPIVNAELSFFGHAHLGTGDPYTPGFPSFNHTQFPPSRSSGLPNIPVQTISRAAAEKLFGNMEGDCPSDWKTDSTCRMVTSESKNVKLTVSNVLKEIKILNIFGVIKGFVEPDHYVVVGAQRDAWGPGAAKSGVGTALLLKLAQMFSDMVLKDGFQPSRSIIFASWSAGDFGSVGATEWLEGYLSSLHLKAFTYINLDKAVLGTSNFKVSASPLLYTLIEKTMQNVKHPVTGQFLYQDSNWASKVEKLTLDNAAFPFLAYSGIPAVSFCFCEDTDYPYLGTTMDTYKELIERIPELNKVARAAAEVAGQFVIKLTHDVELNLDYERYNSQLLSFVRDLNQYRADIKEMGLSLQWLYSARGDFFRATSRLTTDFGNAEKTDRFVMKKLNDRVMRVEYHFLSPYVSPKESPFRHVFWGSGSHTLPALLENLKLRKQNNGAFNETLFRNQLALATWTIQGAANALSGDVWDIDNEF
Assay: SPR, koff at pH 6.0 over koff at pH 7.4
Numbered stars: 1 amine (or outer) side, 2 acyl side, 3 side chain; on linkers, the order of the positions; unused ones are H or OH. Bridge positions count the residues as written; N and C are the ends. Square brackets hold non-standard residues; d marks the D form. Primed or numbered codes have the meaning given here. F4aao = 4-(carboxymethoxy)-L-phenylalanine, O=C([C@H](Cc1ccc(OCC(=O)[*:3])cc1)N[*:1])[*:2]; NMePhe(4-COOH) = CN[C@@H](Cc1ccc(C(=O)O)cc1)C(=O)O; Tyr(Me) = COc1ccc(C[C@H](N[*:1])C(=O)[*:2])cc1; NMePhe(3-Cl) = CN[C@@H](Cc1cccc(Cl)c1)C(=O)O; NMeW = CN[C@@H](Cc1c[nH]c2ccccc12)C(=O)O; NMeY = CN[C@@H](Cc1ccc(O)cc1)C(=O)O; PEG4c(3) = PEG4 linker acid; PEG4c″ = not defined here
Please note: y applies when dependency koff pH6.0/7.4 is 6 or greater, and n applies otherwise.

Problem: Record {CH2CO}-AV[NMePhe(3-Cl)]V[NMeW]NR[Tyr(Me)]IIKRF[NMeY]C-{PEG4c″-NH2} (thioether N-15; reading uncertain) [894_0641] ; criterion: dependency koff pH6.0/7.4 no lower than 6. Met?
Solution: n

Problem: Record {CH2CO}-AV[NMePhe(3-Cl)]V[NMeW]NY[F4aao]IIKRF[NMeY]C-{PEG4c(3)-NH2} (thioether N-15) [894_0644] ; criterion: dependency koff pH6.0/7.4 no lower than 6. Met?
Solution: n

Problem: Record {CH2CO}-AV[NMePhe(3-Cl)]V[NMeW]NY[F4aao]IIKRF[NMePhe(4-COOH)](PEG4c(3))C-{PEG4c(3)-NH2} (thioether N-15) [894_0647] ; criterion: dependency koff pH6.0/7.4 no lower than 6. Met?
Solution: y

Problem: Record AVXVXNYXIIKRFXC (as printed: A-V-MeF3C-V-MeW-N-Y-F4OMe-I-I-K-R-F-MeY-C; linker PEG4c-NH2; cyclic (ClAc-Ala1 thioether to Cys15)) [894_0636] ; criterion: dependency koff pH6.0/7.4 no lower than 6. Met?
Solution: n

Problem: Record {CH2CO}-AV[NMePhe(3-Cl)]V[NMeW]NR[Tyr(Me)]IIQRF[NMeY]C-{PEG4c(3)-NH2} (thioether N-15) [894_0642] ; criterion: dependency koff pH6.0/7.4 no lower than 6. Met?
Solution: n

Problem: Record AVXVXNYXIIQRFXC (as printed: A-V-MeF3C-V-MeW-N-Y-F4OMe-I-I-Q-R-F-MeY-C; linker PEG4c-NH2; cyclic (ClAc-Ala1 thioether to Cys15)) [894_0637] ; criterion: dependency koff pH6.0/7.4 no lower than 6. Met?
Solution: y
